- measurement_target: T1, Human GDF15 native: naturally produced human GDF15 purchased from Peprotech (human, UniProt Q99988 195-308)
- T1 construct: Bought protein
- T1 sequence: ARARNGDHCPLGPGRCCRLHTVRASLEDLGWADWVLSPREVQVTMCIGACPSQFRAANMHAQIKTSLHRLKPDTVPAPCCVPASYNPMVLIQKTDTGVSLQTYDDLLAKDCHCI
- assay_comment: Biacore SPR, IgG captured via anti-human Fc, GDF15 in flow
readout_label: kon (M⁻¹ s⁻¹)

binder="ABGDF15-B (antibody, human IgG1, lambda, V domains shown, captured through anti-human Fc in the Biacore assay) VH: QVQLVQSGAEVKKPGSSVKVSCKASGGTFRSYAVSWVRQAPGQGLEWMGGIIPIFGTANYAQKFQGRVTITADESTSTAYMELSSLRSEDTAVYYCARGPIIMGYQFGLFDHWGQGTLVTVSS VL: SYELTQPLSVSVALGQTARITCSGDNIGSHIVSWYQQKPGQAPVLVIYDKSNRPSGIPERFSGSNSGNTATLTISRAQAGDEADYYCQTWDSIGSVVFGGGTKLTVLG" value_observed=3.38e+06
